system: Botrytis cinera; assay: Serial dilution test, Minimum Inhibitory Concentration, Botrytis cinera (BOC); format: cell-based; conditions: Botrytis cinera, total inhibition of mycelial growth; read-out: MIC (BOC)
Listed below: MIC values for each entry.
// note: answer is a bare numeric in mg/L

Worked examples follow.
[
  {
    "compound": "COC(=O)/C=C(/OC)[C@H](C)[C@H](/C=C/c1csc(C(C)OC(C)=O)n1)OC (stereo partly drawn) [Example 20]",
    "MIC, mg/L": 0.3
  },
  {
    "compound": "COC(=O)/C=C(/OC)[C@H](C)[C@H](/C=C/c1csc(C(C)=O)n1)OC [2:melithiazole C, reference compound]",
    "MIC, mg/L": 1.5
  },
  {
    "compound": "CCOC(=O)/C=C(/OC)[C@H](C)[C@H](/C=C/c1csc(C(C)=NOC)n1)OC (mixture of isomers) [(E/Z)-(13/14)]",
    "MIC, mg/L": 0.005
  },
  {
    "compound": "CO/N=C(/C(=O)OC)c1ccccc1COc1ccccc1C [kresoxim-methyl, reference compound]",
    "MIC, mg/L": 0.1
  }
]

Now for a further compound.
Enquiry: Given the entry COC(=O)/C=C(/OC)[C@H](C)[C@H](/C=C/c1csc(/C(C)=N\OCc2ccccc2)n1)OC [Example 9] , report its measured MIC.
Return: 0.15

Origin of measurements: patent US6197802A
